Target: anti-CC49 variable region (anti-idiotypic) antibodies in the serum of patient four
Experiment: HPLC size exclusion; 5 µg cold competitor + ^125I-HuCC49 + patient serum; less complex = more competition
Assignment: determine reported percent of complexes for the given binders.
Just the number plus its unit, please.

| binder | percent of complexes |
| --- | --- |
| HuCC49 CDR variant H-3 (antibody, V domains shown) VH: QVQLVQSGAEVVKPGASVKISCKASGYTFTDHAIHWVKQNPGQRLEWIGYFSPGNDDFKYNERFKGKATLTADTSASTAYVELSSLRSEDTAVYFCTRGGYYGSGSGSNYWGQGTLVTVSS VL: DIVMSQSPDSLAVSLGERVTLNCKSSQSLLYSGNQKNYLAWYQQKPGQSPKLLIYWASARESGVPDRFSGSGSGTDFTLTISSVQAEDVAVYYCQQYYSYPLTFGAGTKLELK | 8.2% |
| humanized monoclonal antibody HuCC49 (parental HuCC49) (antibody, V domains shown) VH: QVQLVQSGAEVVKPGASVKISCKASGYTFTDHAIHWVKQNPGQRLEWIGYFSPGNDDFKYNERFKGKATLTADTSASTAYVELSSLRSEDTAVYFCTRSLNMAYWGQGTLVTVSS VL: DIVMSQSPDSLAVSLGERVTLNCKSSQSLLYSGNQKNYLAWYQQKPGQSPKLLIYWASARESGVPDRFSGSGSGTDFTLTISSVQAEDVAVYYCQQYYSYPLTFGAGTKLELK | 0.5% |

What the record says about HuCC49 CDR variant H-1 (antibody, V domains shown) VH: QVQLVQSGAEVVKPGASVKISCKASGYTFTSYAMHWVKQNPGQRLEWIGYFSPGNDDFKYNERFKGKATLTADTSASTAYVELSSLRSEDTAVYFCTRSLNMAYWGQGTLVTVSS VL: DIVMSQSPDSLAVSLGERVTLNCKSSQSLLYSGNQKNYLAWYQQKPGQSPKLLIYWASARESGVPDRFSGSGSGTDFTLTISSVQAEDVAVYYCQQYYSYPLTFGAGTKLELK : percent of complexes is 7%

Just for reference, patent US6818749 is where these values come from.
